Tested on: EKVX NSCLC
Run Description: NCI-60 one-dose screen, 48 h (100 = growth as untreated, 0 = no growth, -100 = all killed)
Setup Conditions: 10 µM unless noted
The panel holds about 83,000 compounds, 20% with a hit somewhere; the sample as a whole holds those more often.
Observable: growth (%)
Your answer should be a plain number; it is taken to be in %.

Enquiry: Could you tell me which growth is on file for `Oc1ccccc1/C=N/Nc1nc(N/N=C/c2ccccc2O)nc(N2CCOCC2)n1` ?
Return: 22.2

Enquiry: Can you check CCOC(=O)/C(F)=C/C1CC1CCc1cccc(C(F)(F)F)c1 (configuration not stated) next?
Return: 101

Enquiry: Can you check `COc1cc(/C=C/C(=O)c2ccc(NC(=O)CSc3nnc(-c4ccc5nc(-c6ccccc6)[nH]c5c4)o3)cc2)cc(OC)c1OC` next?
Return: 99

Enquiry: Can you check `CCn1c2ccc(/C=N/NS(=O)(=O)CCN(C)C)cc2c2cc(/C=N/NS(=O)(=O)CCN(C)C)ccc21` next?
Return: 110

Enquiry: Can you check `COC(=O)[C@@]1(C)CC[C@]2(C)CC[C@]3(C)C(=CC(=O)[C@@H]4[C@@]5(C)Cc6c(n(CC#CCN7CCN(C)CC7)c7ccccc67)C(C)(C)[C@@H]5CC[C@]43C)[C@@H]2C1` next?
Return: 92.4

Enquiry: Can you check `C/C(=N/Nc1nc(N/N=C(/C)c2ccc([N+](=O)[O-])cc2)nc(N2CCOCC2)n1)c1ccc([N+](=O)[O-])cc1` next?
Return: 68.1

Enquiry: Can you check `C=C(C)[C@@H]1CC[C@]2(C(=O)NCCCN(CCC#N)CCC#N)CC[C@]3(C)[C@H](CC[C@@H]4[C@@]5(C)CCC(=O)C(C)(C)[C@@H]5CC[C@]43C)[C@@H]12` next?
Return: 104
